- System: HCC-2998 colon
- method.description: NCI-60 one-dose screen, 48 h (100 = growth as untreated, 0 = no growth, -100 = all killed)
- recorded.conditions: 10 µM unless noted
The panel holds about 83,000 compounds, 20% with a hit somewhere; the sample as a whole holds those more often.
reported.endpoint: growth (%)
Express it in %; write the number only.

A selection of reference data follows.
> print(dat)
                                   compound  assay.value
1  Cc1nn(-c2ccc(Cl)cc2)c(=O)n1CCOc1ccccc1Cl          106
2  Nc1c(C(=O)c2ccc(F)cc2)sc2nc3c(cc12)CCCC3         76.7
3  Cc1ccc2c(c1)C(C)Cc1c(ncnc1-n1cnc3ccccc31)N2C (stereo unspecified)         17.4
4         CN(C)CCCNC(=O)C(c1ccccc1)c1ccccc1         99.1
5     Cc1ccc2nc(SCn3nnc4ccccc4c3=O)[nH]c2c1         95.5

HCC-2998 colon / growth / "O=C1Nc2cc(Cl)ccc2Oc2cc(Oc3ccccc3)ccc21" : value? 60.6

HCC-2998 colon / growth / "C=CCOc1cccc(/C=C/C(=O)c2sc(Nc3cccnc3)nc2C)c1" : value? 86.5

HCC-2998 colon / growth / "O=C(CN1CCN(c2cc3c(cc2F)c(=O)c(C(=O)O)cn3C2CC2)CC1)Nc1ccc(C(=O)/C=C/c2ccc(Cl)cc2)cc1" : value? 103

HCC-2998 colon / growth / "O=C(CCCn1c2c(sc3ccccc32)c(=O)n2nnc(-c3ccccc3)c12)NCCc1cnc[nH]1" : value? 25.7

HCC-2998 colon / growth / COc1ccc(/C=c2\sc3n(c2=O)C2C(NN=3)N(C)C(=O)N2C)cc1 (stereo unspecified) : value? 54.9

HCC-2998 colon / growth / "c1ccn2nnnc2c1" : value? 91.6

---

- Test system: NCI-H460 lung
- method.description: NCI-60 one-dose screen, 48 h (100 = growth as untreated, 0 = no growth, -100 = all killed)
- recorded.conditions: 10 µM unless noted
Compounds without any hit were thinned out: in the full panel of roughly 83,000, 20% have a hit.
For each record, check the reported growth: if it is below 50% write t, else write f.

// known answers, use as guide
> print(dat)
                                   compound  class.name
1           CCSc1nnc(NC(=O)Cc2ccc(Cl)cc2)s1           f
2  O=C(CNC(=O)c1cccc2ccccc12)Nc1ccccc1Oc1ccccc1           t

Read the next record carefully.
Just wondering, is growth of "COc1ccc(-n2c(C)cc(-c3ccccc3)c2C)cc1" below 50%? t

---

- Tested on: SW-620 colon
- method.description: NCI-60 one-dose screen, 48 h (100 = growth as untreated, 0 = no growth, -100 = all killed)
- recorded.conditions: 10 µM unless noted
About 83,000 compounds went through this panel and 20% of them were active in at least one assay; those are over-represented in the sample as a whole.
Kindly return t if reported growth is no lower than 30%; return f if it is lower.

molecule	system.under.test	class.name
Cc1cc(C)c(NC(=O)c2sc3nc4c(cc3c2N)CN(Cc2ccccc2)CC4)c(C)c1	SW-620 colon	f

Decide: is the reported value of growth for "O=c1oc2cc(OS(=O)(=O)c3ccc(F)cc3)ccc2c2c1CCCCC2" equal to or greater than 30%? t

Decide: is the reported value of growth for "COc1ccc(-c2nc3sccn3c2-c2ccnc(NCCCNS(=O)(=O)c3ccc(C)cc3)n2)cc1" equal to or greater than 30%? t

Decide: is the reported value of growth for "CCN(C(=O)c1cc2ncccc2[nH]1)[C@H]1CCC[C@@H](NCc2cccc(F)c2)C1" equal to or greater than 30%? t

Decide: is the reported value of growth for COc1c(NC[C@H]2OC(O)[C@H](O)[C@@H](O)[C@@H]2O)c(=O)c1=O (stereo not given in full) equal to or greater than 30%? t

Decide: is the reported value of growth for "O=c1[nH]c(CN2CCN(c3ccccc3F)CC2)nc2sc3c(c12)CCC3" equal to or greater than 30%? t

---

- System: HCT-116 colon
- method.description: NCI-60 one-dose screen, 48 h
- recorded.conditions: 10 µM unless noted
Compounds without any hit were thinned out: in the full panel of roughly 83,000, 20% have a hit. Calls of active or inactive are those of the source. The calls were made as follows: active = growth percent below 10; inactive = the rest.
Pick from T for active, F for inactive when you respond.

// known answers, use as guide
> print(dat)
                                   compound  class.name
1  Cn1c(C(N)=O)cc2c1-c1nc(NC3CCCCC3)ncc1CCC2           F
2  COc1cc(C(=O)N2CCN(C(=O)c3ccco3)CC2)c(N)cc1OCc1ccccc1           F
3  O=C1N=C(c2c(-c3[nH]c(=O)c4ccc(Br)cc4c3O)c(O)c3ccccc3c2O)C(=O)c2cc(Br)ccc21           T
4        Nc1nn2cc(-c3ccc(Cl)s3)nc2c2ccccc12           F
5       CN(C)c1ccc(/C=C\N=Nc2ccc(Br)cc2)cc1           F
6  COc1ccc(/C=C/C(=O)c2ccc(NC(=O)CN3CCN(c4cc5c(cc4F)c(=O)c(C(=O)O)cn5C4CC4)CC3)cc2)cc1           F
7       COc1ccc(-n2c(C)cc(-c3ccccc3)c2C)cc1           F
8  N#CC1=C(N)n2nc(-c3ccncc3)nc2NC1c1cccc2ccccc12 (stereo not given)           F
9  O=C(COc1ccccc1)N1N=C(c2ccc(Cl)cc2)CC1c1c[nH]c2ccccc12 (stereo not given)           F

Read the next record carefully.
Dear all, I need the recorded test outcome for "O=S(=O)(c1ccccc1)n1ccc(-c2ccc3c(c2)CCO3)n1" , thank you. F

---

- Tested on: NCI-H23 lung
- method.description: NCI-60 one-dose screen, 48 h
- recorded.conditions: 10 µM unless noted
The panel holds about 83,000 compounds, 20% with a hit somewhere; the sample as a whole holds those more often. Active and inactive are the calls of the source. Rule for the calls: active = growth percent below 10; inactive = the rest.
Pick from yes for active, no for inactive when you respond.

> print(dat)
                                   compound  system.under.test  class.name
1        Clc1ccc([I+]c2ccc(Cl)cc2Cl)c(Cl)c1       NCI-H23 lung          no
2  COc1ccc(C(=O)c2cc(OC)c(OC)c(OC)c2)cc1/C=C/C(=O)c1ccc(OC)c(OC)c1       NCI-H23 lung          no
3  CCN1C(=O)/C(=c2\sc3n(c2=O)C2C(NN=3)N(CC)C(=S)N2CC)c2ccccc21 (stereo not drawn)       NCI-H23 lung          no

Dear all, I need the recorded test outcome for "COc1cc(CCn2nnc3c(NCCCCO)ncnc32)cc(OC)c1" , thank you. no

Dear all, I need the recorded test outcome for "O=C(CCC(=O)OC1CCCC1)OC1CCCC1" , thank you. no

Dear all, I need the recorded test outcome for "c1ccn2nnnc2c1" , thank you. no

---

- System: NCI/ADR-RES ovarian
- method.description: NCI-60 one-dose screen, 48 h (100 = growth as untreated, 0 = no growth, -100 = all killed)
- recorded.conditions: 10 µM unless noted
- Procedure: Growth inhibition of the NCI/ADR-RES human […] tumor cell line is measured as a screen for anti-cancer activity. Cells are grown in 96 well plates and exposed to the test compound for 48 hours. Compounds are tested at a single concentration, which is 10^-5 M for most compounds. The reported endpoint is percent growth (GI% or GIPRCNT), where numbers from 0 - 100% represent growth inhibition, and numbers from -100% - 0 represent cell death. For example, a value of 40 represents 60% growth inhibition. […]
About 83,000 compounds went through this panel and 20% of them were active in at least one assay; those are over-represented in the sample as a whole.
Kindly return Condition met if reported growth is no lower than 90%; return Condition not met if it is lower.

// known answers, use as guide
> print(dat)
                                   compound         class.name
1   COc1ccc(OC)c(C(=O)c2oc3ccc(Br)cc3c2N)c1  Condition not met
2  CCN1C(=O)/C(=c2\sc3n(c2=O)C2C(NN=3)N(CC)C(=S)N2CC)c2ccccc21 (centres undefined)      Condition met
3   ClC1=C(Cl)C(Cl)=C(Cl)C1=Cc1ccc(Cl)cc1Cl  Condition not met
4  CC(=O)Nc1ccc2c(c1)/C(=C\C=C/c1ccc([N+](C)(C)C)cc1)c1ccccc1-2      Condition met

Decide: is the reported value of growth for CC1=NN2C(=NC3=C(CCC/C3=C\c3ccc(Cl)cc3)C2c2ccc(Cl)cc2)S1 (centres undefined) equal to or greater than 90%? Condition met

Decide: is the reported value of growth for "O=S(=O)(NCCCNc1cc(-c2cn(-c3ccccc3)nc2-c2cccc(O)c2)ccn1)c1ccc(C(F)(F)F)cc1" equal to or greater than 90%? Condition not met

Decide: is the reported value of growth for "Cc1cc(-c2ccccc2)c(C)n1Cc1ccc(Cl)cc1" equal to or greater than 90%? Condition not met

Decide: is the reported value of growth for "C=C1C(=O)O[C@H]2[C@H]1CC/C(Cn1cc(-c3ccc(N)cc3)nn1)=C\CC[C@@]1(C)O[C@@H]21" equal to or greater than 90%? Condition not met
